tested on: ATP; assay: switch fluorescence ratio, 500 uM ATP over buffer (Cy3 cluster intensity, sum of 5 cycles each) (fold (ratio)); higher = stronger signal-on switching upon ATP binding; sequences stand for … in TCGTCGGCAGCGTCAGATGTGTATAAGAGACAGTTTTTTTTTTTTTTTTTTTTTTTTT…TC; conditions: aptamer strand: ATP DNA aptamer (quencher-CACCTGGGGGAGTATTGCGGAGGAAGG + anchor), 100 nM annealed; ATP concentration: 500 uM;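 also: ATP exposure 15 min at 22 °C before imaging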
Please go through the items and note down their switch fluorescence ratio.
One number for each entry.

AAATAGTGCC ... 1.04

// input: 7 sequences below; output: switch fluorescence ratio for each
1. ATGAATAAAT
2. TGTGGTATTT
3. GGAATCTGTA
4. AGGGTATATC
5. CTGGGAGGAT
6. TTGCTGTTTC
7. GTAATTTGTT

[A]
1. 1.01
2. 0.972
3. 0.949
4. 1.05
5. 0.988
6. 1
7. 1.01

// input: 5 sequences below; output: switch fluorescence ratio for each
1. ACGGACTTTG
2. AATCTATAAT
3. TACTCAGAGG
4. GGGGGCGTGG
5. TCATTATTAA

[A]
1. 0.941
2. 1.01
3. 1.04
4. 1
5. 1.01

// input: 2 sequences below; output: switch fluorescence ratio for each
1. CGCCTTAATT
2. GTGAGGGAGC

[A]
1: 1.01; 2: 1.12

// input: 7 sequences below; output: switch fluorescence ratio for each
1. AATGCTGGTT
2. TTACGAACCG
3. CCTTTTTGAA
4. GACGTTTAAT
5. AAGATAACGG
6. GTCTCAAGTT
7. ATGATCTTCG

[A]
1. 1.01
2. 1.23
3. 0.986
4. 1.02
5. 1.07
6. 1.02
7. 1.04
